Biological target: Disintegrin and metalloproteinase domain-containing protein 17 (Homo sapiens) (UniProt P78536)
Sequence (P78536 215-824 limits assumed): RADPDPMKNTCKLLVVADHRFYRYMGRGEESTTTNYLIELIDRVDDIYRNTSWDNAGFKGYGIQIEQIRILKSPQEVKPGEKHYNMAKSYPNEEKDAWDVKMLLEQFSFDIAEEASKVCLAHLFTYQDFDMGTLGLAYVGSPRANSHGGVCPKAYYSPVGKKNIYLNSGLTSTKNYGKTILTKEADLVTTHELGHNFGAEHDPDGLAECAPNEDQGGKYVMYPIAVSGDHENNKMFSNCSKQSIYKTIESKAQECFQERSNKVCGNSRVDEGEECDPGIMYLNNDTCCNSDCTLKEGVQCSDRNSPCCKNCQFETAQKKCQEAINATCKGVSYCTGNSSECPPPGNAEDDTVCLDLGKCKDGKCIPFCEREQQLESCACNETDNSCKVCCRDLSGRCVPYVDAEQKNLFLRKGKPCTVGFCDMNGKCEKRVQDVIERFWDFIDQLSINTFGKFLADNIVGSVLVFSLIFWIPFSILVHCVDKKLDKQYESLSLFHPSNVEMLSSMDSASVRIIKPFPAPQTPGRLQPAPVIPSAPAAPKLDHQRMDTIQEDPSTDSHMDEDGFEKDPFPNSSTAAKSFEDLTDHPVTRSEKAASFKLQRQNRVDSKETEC
Experiment: ADAM17 inhibitor potency, late-stage follow-up, ADAM17 exosite inhibitor project, biochemical, QFRET peptide cleavage, IC50 (AID 743337)
Settings: recombinant ADAM17, QFRET peptide cleavage, fluorescence 3 h
Activity calls are given as the source filed them.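 Rule for the calls: active = IC50 of 10 µM or lower; inactive = IC50 above 10 µM.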
// classify into 1 (yes) for active, 0 (no) for inactive

INSERT INTO measurements (molecule, category_label) VALUES
  ('O=C(Nc1ccc(OCC(F)(F)C(F)F)c(C(F)(F)F)c1)c1ccc(Cl)cc1', '0 (no)'),
  ('CCCCN(Cc1ccccc1)S(=O)(=O)c1cc(Br)cc2c1N(C(C)=O)C(C)C2 (centres undefined)', '0 (no)'),
  ('Cc1ccc(S(=O)(=O)Nc2ccc(Cl)cc2)cc1NC(=O)c1cc2c(s1)CCCC2', '0 (no)'),
  ('C=C(C)COc1ccc(-c2[nH]ncc2Oc2ccc(OC)cc2)c(O)c1', '0 (no)');

// query Per the records of this test, what outcome belongs to O=S(=O)(NCC(Nc1ccc(Cl)cc1)c1ccccc1)c1ccc(Cl)cc1 (centres undefined) ?
// result 0 (no)

// query Per the records of this test, what outcome belongs to COc1ccc2nc(SCC(=O)Nc3ccc(S(=O)(=O)N4CCCC4)cc3)c(C#N)cc2c1 ?
// result 0 (no)

// query Per the records of this test, what outcome belongs to O=C1NC(=O)C(Cc2ccc(Cl)cc2)(c2ccccc2)N1 (centres undefined) ?
// result 1 (yes)

// query Per the records of this test, what outcome belongs to Cc1csc(-c2cnn(-c3ccccc3)c2NC(=O)c2ccc(C(F)(F)F)cc2)n1 ?
// result 0 (no)

// query Per the records of this test, what outcome belongs to O=S(=O)(NCC(Nc1ccc(Cl)cc1)c1ccccc1)c1ccccc1 (centres undefined) ?
// result 0 (no)

// query Per the records of this test, what outcome belongs to Cc1ccc(CC2(c3ccccc3)NC(=O)NC2=O)cc1 (centres undefined) ?
// result 0 (no)

// query Per the records of this test, what outcome belongs to COc1ccc(-c2ccc(-c3noc(-c4cccc(OC)c4)n3)c(OC)n2)cc1 ?
// result 0 (no)

// query Per the records of this test, what outcome belongs to Cc1ccc(OCC(O)Cn2c3ccccc3c3ccccc32)cc1 (centres undefined) ?
// result 0 (no)

// query Per the records of this test, what outcome belongs to COc1ccccc1NS(=O)(=O)c1cccc(NC(=O)Nc2ccc(Cl)cc2)c1 ?
// result 0 (no)

// query Per the records of this test, what outcome belongs to COc1cccc(C(=O)NNC(=O)C(=O)Nc2ccc(C)c(Cl)c2)c1 ?
// result 0 (no)
